Tested on: PANC-1 complex spheroid growth, percent test/control
procedure text: Anticancer human tumor PANC-1 cell line growth inhibition [Asc];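 also: spheroids exposed to agents for 7 days; percent viability relative to DMSO vehicle wells taken as 100%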
condition description: second compound 0.1 µM; first compound 0.00316 µM; stronger effect = lower value

molecule	measurement unit	viability, T/C
O=C(c1ccc(F)c(F)c1Nc1ccc(I)cc1F)N1CC(O)([C@@H]2CCCCN2)C1 + Cc1c(S(C)(=O)=O)c(-c2cc(F)cc(N3CCN(c4ccc(NS(=O)(=O)c5ccc(NC(CCN6CCC(C(=O)OCCCP(=O)(O)O)CC6)CSc6ccccc6)c(S(=O)(=O)C(F)(F)F)c5)cc4)CC3)c2)c(-c2ccc(Cl)cc2)n1C(C)C	%	96.5
